- test.system: CKα1 (Homo sapiens)
- Construct: an N-terminally His-tagged truncated form of CKα1 (Δ75–457) was cloned into a pET-28a vector; His tag (N); made in house; host or cells: E. coli BL21 (DE3) Star
- Sequence (P35790 75-457): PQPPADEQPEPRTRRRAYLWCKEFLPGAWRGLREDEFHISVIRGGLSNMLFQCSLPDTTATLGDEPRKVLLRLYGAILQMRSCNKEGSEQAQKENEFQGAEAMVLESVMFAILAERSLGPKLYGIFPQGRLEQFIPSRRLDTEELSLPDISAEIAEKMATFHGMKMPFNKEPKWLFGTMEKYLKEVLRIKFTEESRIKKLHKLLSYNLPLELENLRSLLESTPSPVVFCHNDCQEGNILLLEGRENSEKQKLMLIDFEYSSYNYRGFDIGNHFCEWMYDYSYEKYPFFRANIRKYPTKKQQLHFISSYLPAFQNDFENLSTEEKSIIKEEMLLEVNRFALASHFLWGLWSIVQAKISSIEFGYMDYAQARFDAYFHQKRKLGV
- test.name: Choline kinase assay ([methyl-14C]choline into PCho, purified enzyme)
- Format: biochemical
- conditions: concentration required to inhibit CKα1 enzyme by 50%
pIC50: −log10 of the molar value.
Measured pIC50 by item

[Br-].[Br-].c1cc2c(N3CCCC3)nc[n+](Cc3ccc(CCc4ccc(C[n+]5cnc(N6CCCC6)c6ccsc65)cc4)cc3)c2s1 ≤ 5.30
[Br-].[Br-].c1cc2c(N3CCCC3)nc[n+](Cc3ccc(OCCOc4ccc(C[n+]5cnc(N6CCCC6)c6ccsc65)cc4)cc3)c2s1 ≤ 5.00
[Br-].[Br-].c1cc2c(s1)c(N1CCCC1)nc[n+]2Cc1ccc(-c2ccc(C[n+]3cnc(N4CCCC4)c4sccc43)cc2)cc1 ≤ 5.30
[Br-].[Br-].c1cc2c(N3CCCCC3)nc[n+](Cc3ccc(CCCCc4ccc(C[n+]5cnc(N6CCCCC6)c6ccsc65)cc4)cc3)c2s1 ≤ 5.00

Now look at this one.
Record request: pIC50 value, item `[Br-].[Br-].c1cc2c(N3CCCC3)nc[n+](Cc3ccc(CCCCc4ccc(C[n+]5cnc(N6CCCC6)c6ccsc65)cc4)cc3)c2s1` ≤ 5.30
